max response by entry:
Experiment: qHTS assay for small molecule antagonists of peroxisome proliferator-activated receptor delta signaling (AID 588535);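 also: cells co-treated with a PPAR-delta agonist as stimulator during compound exposure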
Settings: HEK293T PPARd-UAS-bla, beta-lactamase FRET ratio, 18 h; 460 nm channel
Records with an inconclusive call do not appear.
Form entry: value (%) — number only.

INSERT INTO results (compound, quantitative_result) VALUES
  ('C#CCO', 29.5);

Bench note: what max response did `CCCOc1nn(C(=O)NS(=O)(=O)c2ccccc2C(=O)OC)c(=O)n1C` show? 41

Bench note: what max response did CCOP(=S)(OCC)Oc1ccc(S(C)=O)cc1 (centres undefined) show? -64.2

Bench note: what max response did `Nc1cnn(-c2ccccc2)c(=O)c1Cl` show? 13.7

Bench note: what max response did O=P(OCC(Br)CBr)(OCC(Br)CBr)OCC(Br)CBr (centres undefined) show? -17.7

Bench note: what max response did `CC1(C)[C@H](C(=O)O[C@H](C#N)c2cccc(Oc3ccccc3)c2)[C@@H]1/C=C(\Cl)C(F)(F)F` show? -6.46

Bench note: what max response did `COc1cccc(C(=O)NN(C(=O)c2cc(C)cc(C)c2)C(C)(C)C)c1C` show? -0.516

Bench note: what max response did `O=[N+]([O-])c1ccc(Oc2ccc(Cl)cc2Cl)cc1` show? -2.51

Bench note: what max response did `Cc1nc(N(C)C)nc(OC(=O)N(C)C)c1C` show? 13.1

Bench note: what max response did `CNC(=O)O/N=C(\SC)C(=O)N(C)C` show? 22.2

Bench note: what max response did `c1ccc2c(c1)oc1ccccc12` show? 3.99

====

Molecular target: Glucocorticoid receptor (Homo sapiens) (UniProt P04150)
Sequence (P04150 whole entry, looked up): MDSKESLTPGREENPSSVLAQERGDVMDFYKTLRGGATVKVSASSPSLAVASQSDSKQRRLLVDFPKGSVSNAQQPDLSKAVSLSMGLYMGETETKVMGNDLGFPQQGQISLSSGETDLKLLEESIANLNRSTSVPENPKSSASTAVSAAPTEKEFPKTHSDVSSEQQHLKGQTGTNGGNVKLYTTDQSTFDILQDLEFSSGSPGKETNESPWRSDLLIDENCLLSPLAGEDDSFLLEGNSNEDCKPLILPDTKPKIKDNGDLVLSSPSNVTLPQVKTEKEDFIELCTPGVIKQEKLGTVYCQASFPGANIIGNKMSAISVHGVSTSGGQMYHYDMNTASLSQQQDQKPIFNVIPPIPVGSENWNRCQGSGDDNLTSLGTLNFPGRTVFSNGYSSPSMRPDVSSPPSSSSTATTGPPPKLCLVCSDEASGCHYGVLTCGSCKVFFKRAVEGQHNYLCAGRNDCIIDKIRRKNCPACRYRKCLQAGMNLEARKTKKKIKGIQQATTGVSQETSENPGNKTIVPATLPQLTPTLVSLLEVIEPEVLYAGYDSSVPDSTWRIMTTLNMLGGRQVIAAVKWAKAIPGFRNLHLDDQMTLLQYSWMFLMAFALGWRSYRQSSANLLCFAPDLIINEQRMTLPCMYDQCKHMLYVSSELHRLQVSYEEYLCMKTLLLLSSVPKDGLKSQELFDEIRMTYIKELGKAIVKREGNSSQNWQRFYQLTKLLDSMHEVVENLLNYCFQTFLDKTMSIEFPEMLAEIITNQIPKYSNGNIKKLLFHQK
Assay: qHTS assay for small molecule antagonists of glucocorticoid receptor signaling (AID 588533);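 also: cells stimulated with 2 nM dexamethasone as agonist; % is scaled to controls: 0 for no effect and ±100 for the full control effect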
Conditions: HeLa MMTV-bla, GRE beta-lactamase ratio, antagonist mode, 18 h; series mostly up to 76.8 µM
Inconclusive results are not listed. The source made the active and inactive calls. The call rests on the fitted dose curve; in most records, active means well fitted inhibition curve with a large enough effect in the signal ratio, with a control signal flat (not every such curve was filed as active); inconclusive means small, poorly fitted or top-dose-only effect, or effect the other way, or a change in a side signal; inactive means flat fitted curve, though single readings scatter; the % refers to the signal ratio.
Observation Type: outcome

INSERT INTO assay_data (molecule, result) VALUES
  ('CCCSC(=O)N(CCC)CCC', 'inactive'),
  ('O=[N+]([O-])c1ccc(Nc2ccccc2)cc1', 'inactive'),
  ('CCCC1COC(Cn2cncn2)(c2ccc(Cl)cc2Cl)O1 (stereo not drawn)', 'inactive');

====

Test: qHTS assay for small molecule antagonists of retinoid X receptor alpha signaling (AID 588546);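 also: cells stimulated with 9-cis-retinoic acid as agonist; % is scaled to controls: 0 for no effect and ±100 for the full control effect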
Details: HEK293T RXRa-UAS-bla, beta-lactamase ratio, antagonist mode; measured here: W530 green channel, cytotoxicity proxy
Inconclusive results are not listed.
max response by entry:
Form entry: value (%) — number only.

Recorded max response, per entry:
INSERT INTO results (compound, units_of_measure, quantitative_result) VALUES
  ('CCOC(=O)COc1cc(-c2nn(C)c(OC(F)F)c2Cl)c(F)cc1Cl', '%', 16.9),
  ('O=C(Nc1ccccc1)Nc1cnns1', '%', 1.32),
  ('CCC[CH2][Sn](=[O])[CH2]CCC', '%', -4.07),
  ('CC(C)(c1ccccc1)c1cc(-n2nc3ccccc3n2)c(O)c(C(C)(C)c2ccccc2)c1', '%', -10.8);

Bench note: what max response did CC1COC(Cn2cncn2)(c2ccc(Oc3ccc(Cl)cc3)cc2Cl)O1 (stereo not given) show? 9.03

====

Test: qHTS assay for small molecule agonists of the antioxidant response element (ARE) signaling pathway measured by Nrf2-dependant transcriptional activity - cell viability counter screen (AID 720653); also: potency is read from the fitted curve at half-maximal effect
Conditions: ARE-bla HepG2 viability, CellTiter-Glo ATP luminescence, 16 h
Results filed as inconclusive are left out. Activity calls are given as the source filed them. Calls come from the whole dose curve; as a rule, active = well fitted cell-killing curve with a large enough effect in the repeat runs; inconclusive = weak or mixed curves; inactive = flat fitted curve, though single readings scatter.
Potency by entry:

Recorded Potency, per entry:
INSERT INTO assay_data (chemical_smiles, result) VALUES
  ('N#Cc1c(Cl)c(Cl)c(Cl)c(C#N)c1Cl', '70.8 µM (active)'),
  ('CC(=O)[O-].CC(=O)[O-].O.O.[Cd+2]', '10 µM (active)'),
  ('[CH3][Hg][Cl]', '25.1 µM (active)');

Bench note: what Potency did `CC1(C)CN=C(NN=C(/C=C/c2ccc(C(F)(F)F)cc2)/C=C/c2ccc(C(F)(F)F)cc2)NC1` show? 25.1 µM (active)
